Where these numbers come from: patent US20070254877A1

Could you please report measured inhibition at 1 µM for the items listed next?
target: VEGFR2 intracellular domain protein (Homo sapiens, UniProt P35968); construct: made in house; host or cells: SF-21 insect cells infected with recombinant baculovirus BAC-VEGFR2; test: Determination of VEGF Receptor 2 Kinase (VEGFR2) inhibitory activity (AlphaScreen); format: biochemical; conditions: test compound at 1 μM; ATP 25 μM buffer, 25° C., 5 min; read-out: kinase inhibitory rate (%)
Sequence (P35968 786-1356 limits assumed): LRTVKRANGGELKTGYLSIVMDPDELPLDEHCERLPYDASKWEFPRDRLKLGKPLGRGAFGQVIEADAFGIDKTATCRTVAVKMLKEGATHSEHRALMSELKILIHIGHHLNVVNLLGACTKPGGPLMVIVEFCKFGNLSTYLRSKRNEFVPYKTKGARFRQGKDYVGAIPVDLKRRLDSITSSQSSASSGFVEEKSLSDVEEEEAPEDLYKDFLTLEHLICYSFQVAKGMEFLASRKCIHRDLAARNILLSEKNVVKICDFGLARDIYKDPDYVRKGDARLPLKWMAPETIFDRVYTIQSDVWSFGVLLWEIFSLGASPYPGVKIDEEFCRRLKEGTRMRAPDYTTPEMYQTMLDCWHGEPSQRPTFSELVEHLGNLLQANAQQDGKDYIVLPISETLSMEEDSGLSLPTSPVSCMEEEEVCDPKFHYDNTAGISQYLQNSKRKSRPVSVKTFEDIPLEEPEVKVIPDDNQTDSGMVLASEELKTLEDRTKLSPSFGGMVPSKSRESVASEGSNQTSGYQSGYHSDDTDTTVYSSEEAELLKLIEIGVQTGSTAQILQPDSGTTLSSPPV
Counter-ions that a name gives are not always drawn.

Example entries and their recorded answers appear below.
compound=O=C(c1ccc2[nH]c3c(c2c1)CCCc1cn[nH]c1-3)N1CCC(O)(c2ccc(F)cc2)CC1 property_measured="inhibition at 1 µM" observed_value="≥ 80%"
compound=O=C(c1ccc2[nH]c3c(c2c1)CCCc1cn[nH]c1-3)N1CCC(O)(c2ccccc2Cl)CC1 property_measured="inhibition at 1 µM" observed_value="≥ 80%"
compound=O=C(c1ccc2[nH]c3c(c2c1)CCCc1cn[nH]c1-3)N1CCC(O)(c2cccc(F)c2)CC1 property_measured="inhibition at 1 µM" observed_value="≥ 80%"

Give inhibition at 1 µM for all compounds that follow.
1. O=C(c1ccc2[nH]c3c(c2c1)CCCc1cn[nH]c1-3)N1CCC(O)(c2cccc(Cl)c2)CC1
2. O=C(c1ccc2[nH]c3c(c2c1)CCCc1cn[nH]c1-3)N1CCC(O)(c2cccc(C(F)(F)F)c2)CC1
3. O=C(c1ccc2[nH]c3c(c2c1)CCCc1cn[nH]c1-3)N1CCC(O)(c2ccccc2C(F)(F)F)CC1

*A*
["≥ 80%", "≥ 80%", "≥ 80%"]

Give inhibition at 1 µM for all compounds that follow.
1. O=C(c1ccc2[nH]c3c(c2c1)CCCc1cn[nH]c1-3)N1CCC(O)(c2ccccc2F)CC1
2. O=C(c1ccc2[nH]c3c(c2c1)CCCc1cn[nH]c1-3)N1CCC(N2CCCCCC2)CC1 [Example 11, hydrochloride]

*A*
1: ≥ 80%; 2: ≥ 90%

Give inhibition at 1 µM for all compounds that follow.
1. O=C(c1ccc2[nH]c3c(c2c1)CCCc1cn[nH]c1-3)N1CCC(NCc2ccccc2)CC1 [Example 17, hydrochloride]
2. O=C(c1ccc2[nH]c3c(c2c1)CCCc1cn[nH]c1-3)N1CCC(N2CCSCC2)CC1 [Example 15, hydrochloride]
3. O=C(c1ccc2[nH]c3c(c2c1)CCCc1cn[nH]c1-3)N1CCC(O)(c2ccc(Cl)cc2)CC1
4. O=C(c1ccc2[nH]c3c(c2c1)CCCc1cn[nH]c1-3)N1CCC(O)(c2ccc(C(F)(F)F)cc2)CC1

*A*
1: ≥ 90%; 2: ≥ 90%; 3: ≥ 80%; 4: ≥ 80%
